Can you tell me remaining activity at 10 µM for the items I'm about to list?
Target: Helios (IKZF2) (Homo sapiens, UniProt Q96SW2+Q9UKS7)
Sequence (Q9UKS7 whole entry): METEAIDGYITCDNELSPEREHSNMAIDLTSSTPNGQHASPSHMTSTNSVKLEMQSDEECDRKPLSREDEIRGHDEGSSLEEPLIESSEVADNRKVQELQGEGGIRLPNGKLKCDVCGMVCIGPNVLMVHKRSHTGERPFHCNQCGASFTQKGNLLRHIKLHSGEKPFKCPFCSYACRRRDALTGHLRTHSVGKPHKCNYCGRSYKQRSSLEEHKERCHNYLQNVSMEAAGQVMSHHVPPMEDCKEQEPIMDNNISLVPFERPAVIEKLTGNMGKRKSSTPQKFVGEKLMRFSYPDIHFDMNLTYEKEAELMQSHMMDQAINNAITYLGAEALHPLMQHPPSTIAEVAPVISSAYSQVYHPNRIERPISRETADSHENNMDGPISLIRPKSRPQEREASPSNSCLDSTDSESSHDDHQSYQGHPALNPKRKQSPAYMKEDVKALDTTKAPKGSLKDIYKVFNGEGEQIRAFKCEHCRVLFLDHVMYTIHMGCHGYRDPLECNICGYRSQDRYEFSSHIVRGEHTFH
Sequence (Q96SW2 whole entry): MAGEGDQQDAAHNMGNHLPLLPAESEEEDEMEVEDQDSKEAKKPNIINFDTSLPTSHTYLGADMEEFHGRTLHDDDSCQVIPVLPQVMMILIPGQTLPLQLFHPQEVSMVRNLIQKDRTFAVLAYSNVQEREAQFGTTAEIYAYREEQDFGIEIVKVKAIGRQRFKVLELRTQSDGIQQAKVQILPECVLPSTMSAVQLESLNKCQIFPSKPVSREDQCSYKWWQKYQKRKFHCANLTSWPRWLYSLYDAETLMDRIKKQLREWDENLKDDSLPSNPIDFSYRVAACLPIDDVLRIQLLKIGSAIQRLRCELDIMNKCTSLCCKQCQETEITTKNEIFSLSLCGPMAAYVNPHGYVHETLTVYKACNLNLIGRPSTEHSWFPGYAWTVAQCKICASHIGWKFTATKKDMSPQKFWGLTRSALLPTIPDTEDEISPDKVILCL
Sequence (Q16531 whole entry partner): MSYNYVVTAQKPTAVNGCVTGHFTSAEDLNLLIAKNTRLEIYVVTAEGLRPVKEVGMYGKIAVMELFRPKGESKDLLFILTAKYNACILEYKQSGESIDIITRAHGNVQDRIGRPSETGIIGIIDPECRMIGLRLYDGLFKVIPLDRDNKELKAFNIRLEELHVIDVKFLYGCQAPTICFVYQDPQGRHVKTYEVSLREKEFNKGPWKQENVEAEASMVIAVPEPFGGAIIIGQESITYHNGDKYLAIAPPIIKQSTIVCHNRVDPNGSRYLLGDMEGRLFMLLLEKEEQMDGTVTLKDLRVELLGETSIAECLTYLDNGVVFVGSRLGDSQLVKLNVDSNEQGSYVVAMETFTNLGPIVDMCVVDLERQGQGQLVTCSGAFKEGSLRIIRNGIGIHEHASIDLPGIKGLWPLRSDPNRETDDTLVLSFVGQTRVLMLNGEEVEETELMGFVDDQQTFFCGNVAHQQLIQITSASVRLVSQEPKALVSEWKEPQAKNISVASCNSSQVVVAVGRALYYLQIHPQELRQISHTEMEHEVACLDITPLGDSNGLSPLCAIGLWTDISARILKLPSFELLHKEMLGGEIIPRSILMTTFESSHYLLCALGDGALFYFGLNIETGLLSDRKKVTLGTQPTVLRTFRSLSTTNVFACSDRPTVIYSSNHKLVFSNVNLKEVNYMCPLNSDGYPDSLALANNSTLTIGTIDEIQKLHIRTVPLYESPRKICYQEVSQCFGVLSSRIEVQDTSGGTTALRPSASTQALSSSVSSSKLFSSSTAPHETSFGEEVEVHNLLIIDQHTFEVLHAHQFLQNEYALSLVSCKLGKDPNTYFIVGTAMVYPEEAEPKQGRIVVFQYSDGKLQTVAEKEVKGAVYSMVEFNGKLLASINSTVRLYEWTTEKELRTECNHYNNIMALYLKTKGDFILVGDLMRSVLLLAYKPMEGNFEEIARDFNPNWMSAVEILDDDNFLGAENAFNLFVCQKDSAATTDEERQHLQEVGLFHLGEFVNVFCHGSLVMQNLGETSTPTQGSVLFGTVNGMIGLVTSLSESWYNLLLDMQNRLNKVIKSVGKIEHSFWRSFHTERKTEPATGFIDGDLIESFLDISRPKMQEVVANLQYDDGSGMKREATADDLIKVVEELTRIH
Test: Screening of Helios protein degraders using Nano-Glo HiBiT cell line (HiBiT-IKZF2)
Type: cell-based
Details: compound 10 μM, 6 hours, HiBiT-Helios knock-in Jurkat cells; read-out: HiBiT-IKZF2 Residual amount of Helios (%) 10 μM
Numbers only, in %.

Below, 2 compounds whose answers are already recorded.
Compound	Unit String	remaining activity at 10 µM
COc1cc2c(C)c(C(=O)N3CCC(c4ccc5c(c4)CN(C4CCC(=O)NC4=O)C5=O)CC3)[nH]c2cc1[N+](=O)[O-] (stereo not drawn)	%	21.4
Cc1c(C(=O)N2CCC(c3ccc4c(c3F)CN(C3CCC(=O)N(COC(=O)C(C)(C)C)C3=O)C4=O)CC2)[nH]c2cc(Cl)ccc12 (stereo not drawn)	%	14.3

In the following, a different compound is considered.
Test item Cc1c(C(=O)N2CCC(c3ccc4c(c3)CN(C3CCC(=O)NC3=O)C4=O)CC2)[nH]c2cc(NS(C)(=O)=O)ccc12 (stereo not drawn) ; Helios (IKZF2) (Homo sapiens, UniProt Q96SW2+Q9UKS7); reported remaining activity at 10 µM was 75.8
